system: Klebsiella pneumoniae; assay: Antibacterial activity against Klebsiella pneumoniae CICC 21611 after 16 to 18 hrs by broth microdilution method; assay type: functional; conditions: time 16-18 hrs
value-type: MIC (µg/mL)

{"columns": ["compound", "value-type", "qualifier-operator", "assay-result"],
 "data": [
  ["CCCC[C@H](CN(O)C=O)C(=O)N1CCC[C@H]1c1nnc(-c2cc(C(F)(F)F)cc(C(F)(F)F)c2)s1", "MIC", ">", 16],
  ["CCCC[C@H](CN(O)C=O)C(=O)N1CCC[C@H]1c1nnc(-c2ccc(F)cc2)s1", "MIC", ">", 16],
  ["CCCC[C@H](CN(O)C=O)C(=O)N1CCC[C@H]1c1nnc(-c2ccc(-c3ccccn3)cc2)s1", "MIC", "=", 32],
  ["CCCC[C@H](CN(O)C=O)C(=O)N1CCC[C@H]1c1nnc(-c2ccc(C#N)cc2F)s1", "MIC", ">", 16],
  ["CCCC[C@H](CN(O)C=O)C(=O)N1CCC[C@H]1c1nnc(-c2ccc([N+](=O)[O-])cc2)s1", "MIC", ">", 16],
  ["CCCC[C@H](CN(O)C=O)C(=O)N1CCC[C@H]1c1nnc(-c2ccc([N+](=O)[O-])cc2C(F)(F)F)s1", "MIC", ">", 16],
  ["CCCC[C@H](CN(O)C=O)C(=O)N1CCC[C@H]1c1nnc(-c2ccns2)s1", "MIC", "=", 16],
  ["CN[C@H](CC(C)C)C(=O)N[C@H]1C(=O)N[C@@H](CC(N)=O)C(=O)N[C@H]2C(=O)N[C@H]3C(=O)N[C@H](C(=O)N[C@H](C(=O)O)c4cc(O)cc(O)c4-c4cc3ccc4O)[C@H](O)c3ccc(c(Cl)c3)Oc3cc2cc(c3O[C@@H]2O[C@H](CO)[C@@H](O)[C@H](O)[C@H]2O[C@H]2C[C@](C)(N)[C@H](O)[C@H](C)O2)Oc2ccc(cc2Cl)[C@H]1O [VANCOMYCIN]", "MIC", "=", 16],
  ["CCCC[C@H](CN(O)C=O)C(=O)N1CCC[C@H]1c1nnc(-c2sccc2F)s1", "MIC", "=", 16],
  ["CCCC[C@H](CN(O)C=O)C(=O)N1CCC[C@H]1c1nnc(C2CCCC2)s1", "MIC", ">", 16],
  ["CCCC[C@H](CN(O)C=O)C(=O)N1CCC[C@H]1c1nnc(-c2ccc[nH]2)s1", "MIC", ">", 16],
  ["CC(=O)NC[C@H]1CN(c2ccc(N3CCOCC3)c(F)c2)C(=O)O1 [LINEZOLID]", "MIC", "=", 128],
  ["CCCC[C@H](CN(O)C=O)C(=O)N1CCC[C@H]1c1nnc(-c2ccc(OC)c(OC)c2)s1", "MIC", ">", 16],
  ["CCCC[C@H](CN(O)C=O)C(=O)N1CCC[C@H]1c1nnc(-c2cccs2)s1", "MIC", "=", 8],
  ["CCCC[C@H](CN(O)C=O)C(=O)N1CCC[C@H]1c1nnc(-c2ccncc2)s1", "MIC", "=", 32],
  ["CCCC[C@H](CN(O)C=O)C(=O)N1CCC[C@H]1c1nnc(CCC)s1", "MIC", ">", 16]
]}
